# Assay System: MMP-1 (Homo sapiens)
# Experiment: MMP-1 inhibitory action (Type I collagen Activity Measurement kit, FITC-labeled collagen type I)
# Format: biochemical
# Details: MMP-1 inhibitory action, FITC-labeled collagen type I, 37° C. for 3 hr; read-out: IC50 MMP1 (Experimental Example 2)
pIC50: −log10 of the molar value.
Catalogue of pIC50 values

Which pIC50 value belongs to O=C(O)C1(NS(=O)(=O)c2ccc(-c3ccc(Cl)cc3)s2)CC1c1cccc(OCc2ccccc2)c1 (stereo not shown) [Example 2-36] ?
≤ 5.00

Param item: CN(Cc1cccnc1)c1cccc(C2CC2(NS(=O)(=O)c2ccc(-c3cc(C(F)(F)F)on3)s2)C(=O)O)c1 (stereo not shown) [Example 2-214]
> 6.00

Subsequent entry: CN(C)CCOc1ccccc1C1CC1(NS(=O)(=O)c1ccc(-c2ccc(Cl)cc2)s1)C(=O)O (stereo not shown) [Example 2-49]
≤ 5.00

Next molecule, please.
Which pIC50 is reported for this molecule? O=C(O)C1(NS(=O)(=O)c2ccc(-c3ccc(Cl)cc3)s2)CC1c1ccccc1Oc1cccnc1 (stereo not shown) [Example 2-24]
≤ 5.00

* * *

# reported IC50; entries follow
# Assay System: MMP-1 (Homo sapiens)
# Experiment: MMP-1 inhibitory action (Type I collagen Activity Measurement kit, FITC-labeled collagen type I)
# Type: biochemical
# Details: MMP-1 inhibitory action, FITC-labeled collagen type I, 37° C. for 3 hr; read-out: IC50 MMP1 (Experimental Example 2)

Below, each entry is followed by its recorded IC50 result.
Data request, read-out IC50, for O=C(O)C1(NS(=O)(=O)c2ccc(-c3cc(C(F)(F)F)on3)s2)CC1c1cccc(CCCO)c1 (stereo not drawn) [Example 2-236]
≥ 1 µM

Moving on to O=C(O)C1(NS(=O)(=O)c2ccc(-c3ccc(Cl)cc3)s2)CC1c1cccnc1 (stereo not drawn) [Example 2-70]
≥ 10 µM

What about this compound? Cc1cc(-c2ccc(S(=O)(=O)N[C@@]3(C(=O)O)C[C@@H]3c3ccccc3)s2)no1 [Example 2-85]
≥ 1 µM

***
Can you share its IC50? I mean this compound: O=C(O)C1(NS(=O)(=O)c2ccc(-c3ccc(Cl)cc3)s2)CC1c1ccccc1OCCO (stereo not drawn) [Example 1-138]
≥ 1 µM

Repeat with O=C(O)C1(CS(=O)(=O)N2CCN(c3ccc(C(F)(F)F)cn3)CC2)CC1c1ccccc1 (stereo not drawn) [Example 2-185]
≥ 10 µM

What do we get for O=C(O)C1(NS(=O)(=O)c2ccc(-c3ccc(Cl)cc3)s2)CC1(CCCN1CCOCC1)c1ccccc1 (stereo not drawn) [Example 2-249] ?
≥ 10 µM

Can you check O=C(O)C1(NS(=O)(=O)c2ccc(-c3ccc(Cl)cc3)s2)CC1c1ccc(OCc2ccccc2)cc1 (stereo not drawn) [Example 2-225] next?
≥ 10 µM

Next up: CC1[C@H](c2ccccc2)[C@]1(NS(=O)(=O)N1CCN(C(=O)Nc2ccccc2)CC1)C(=O)O (stereo partly drawn) [Example 2-11]
≥ 1 µM

// next record O=C(O)C1(NS(=O)(=O)c2ccc(-c3ccc(Cl)c(Cl)c3)s2)CC1c1ccccc1 (stereo not drawn) [Example 2-18]
≥ 1 µM

What do we get for Nc1cccc(C2CC2(NS(=O)(=O)c2ccc(-c3ccc(Cl)cc3)s2)C(=O)O)c1 (stereo not drawn) [Example 1-128] ?
≥ 1 µM

// next record O=C(O)C1(NS(=O)(=O)N2CCC(Oc3ccccc3)CC2)CC1c1ccccc1 (stereo not drawn) [Example 2-143]
≥ 10 µM

Please do the same for O=C(c1cccc(C2CC2(NS(=O)(=O)c2ccc(-c3cc(C(F)(F)F)on3)s2)C(=O)O)c1)N1CCOCC1 (stereo not drawn) [Example 2-258] as well.
≥ 1 µM

* * *

# Assay System: Recombinant Human MMP-13 (Homo sapiens, UniProt P45452)
# Construct: purchased R&D systems 511-MM
# Experiment: MMP-13 inhibitory activity (MMP-13 specific fluorescent substrate with quencher)
# Format: biochemical
# Details: Experimental Example 3; read-out: IC50 MMP13
Quantity Name: IC50

Which IC50 is reported for this molecule? CC(C)C(=O)NCC1(c2ccccc2)CC1(NS(=O)(=O)c1ccc(-c2ccc(Cl)cc2)s1)C(=O)O (stereo not shown) [Example 2-397]
< 1000 nM

Further cases:
Item C[C@]1(c2ccccc2)C[C@@]1(NS(=O)(=O)c1ccc(-c2ncc(F)cc2F)s1)C(=O)O [Example 2-466] has what recorded IC50?
≥ 1000 nM

// repeat for O=C(NO)C1(NS(=O)(=O)c2ccc(-c3ccc(Cl)cc3)s2)C2Cc3ccccc3C21 (stereo not shown) [Example 2-447] and report
< 100 nM

Similarly, O=C(O)C1(NS(=O)(=O)c2ccc(-c3cc(C(F)(F)F)on3)s2)CC1c1cc(CO)on1 (stereo not shown) [Example 2-317] ?
< 1000 nM

* * *

# Assay System: UniProtKB O75173
# Sequence (O75173 213-837, species assumed): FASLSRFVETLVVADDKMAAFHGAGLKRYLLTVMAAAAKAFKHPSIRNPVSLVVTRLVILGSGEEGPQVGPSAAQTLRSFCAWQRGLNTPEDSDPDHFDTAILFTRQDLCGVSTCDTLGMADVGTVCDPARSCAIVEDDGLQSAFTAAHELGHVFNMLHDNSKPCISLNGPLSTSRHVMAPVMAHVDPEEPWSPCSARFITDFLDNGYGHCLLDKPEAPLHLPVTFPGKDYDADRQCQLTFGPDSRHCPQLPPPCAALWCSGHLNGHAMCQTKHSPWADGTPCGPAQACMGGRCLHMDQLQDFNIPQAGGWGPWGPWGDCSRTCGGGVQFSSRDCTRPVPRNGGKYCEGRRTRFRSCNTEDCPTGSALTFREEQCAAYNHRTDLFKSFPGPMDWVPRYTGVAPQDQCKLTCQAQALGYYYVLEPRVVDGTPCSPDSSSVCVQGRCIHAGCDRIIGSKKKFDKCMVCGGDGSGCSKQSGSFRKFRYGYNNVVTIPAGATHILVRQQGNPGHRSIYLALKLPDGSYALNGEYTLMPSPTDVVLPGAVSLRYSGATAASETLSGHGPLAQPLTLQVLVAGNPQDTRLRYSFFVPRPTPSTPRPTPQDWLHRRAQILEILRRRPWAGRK
# Experiment: Aggrecanase-1 inhibitory action (Particle Assay, GAG release from aggrecan-containing polyacrylamide particles)
# Format: biochemical
# Details: aggrecanase-1 inhibitory action; read-out: IC50 AG1 (Experimental Example 1)
pIC50: −log10 of the molar value.
Quantity Name: pIC50

Here is how some molecules turned out for pIC50.
Need pIC50 of O=C(O)Cc1cccc(C2CC2(NS(=O)(=O)c2ccc(-c3cc(C(F)(F)F)on3)s2)C(=O)O)c1 (stereo not shown) [Example 2-212] , thanks.
> 7.00

// next record COC(=O)Cc1cccc(C2CC2(NS(=O)(=O)c2ccc(-c3ccc(Cl)cc3)s2)C(=O)O)c1 (stereo not shown) [Example 2-188]
> 7.00

And then O=C(OCCCc1ccccc1C1CC1(NS(=O)(=O)c1ccc(-c2cc(C(F)(F)F)on2)s1)C(=O)O)N1CC[C@@H](O)C1 (stereo partly shown) [Example 2-255] , what is it?
> 7.00

Next record, please: O=C(OCCCc1ccccc1C1CC1(NS(=O)(=O)c1ccc(-c2cc(C(F)(F)F)on2)s1)C(=O)O)N1CCOCC1 (stereo not shown) [Example 2-253]
> 7.00

Same thing, different molecule: CC(F)(F)c1cc(-c2ccc(S(=O)(=O)N[C@@]3(C(=O)O)C[C@@H]3c3ccccc3)s2)ns1 [Example 2-124]
> 7.00

Can you handle O=C(O)C1(NS(=O)(=O)c2ccc(-c3cc(C(F)(F)F)on3)s2)CC1c1cccc(CCCO)c1 (stereo not shown) [Example 2-236] next?
> 6.00

---
# pIC50 lookup, item O=C(O)C1(NS(=O)(=O)c2ccc(-c3ccc(Cl)cc3)cc2)CC1c1cccc(OCCn2cccn2)c1 (stereo not shown) [Example 1-75]
> 6.00

Same read-out for O=C(O)C1(NS(=O)(=O)N2CCN(c3ccc(C(F)(F)F)cn3)CC2)CC1c1ccccc1 (stereo not shown) [Example 2-68] ?
≤ 6.00

Moving on to the next molecule: O=C(O)C1(NS(=O)(=O)c2ccc(-c3ccc(Cl)cc3)s2)CC1c1ccc(Br)cc1 (stereo not shown) [Example 2-203]
> 6.00

Try the molecule O=C(O)[C@]1(NS(=O)(=O)c2ccc(-c3ccc(Cl)nc3)s2)C[C@@H]1c1ccccc1 [Example 2-27]
> 6.00

Queued: Nc1cccc(C2CC2(NS(=O)(=O)c2ccc(-c3ccc(Cl)cc3)cc2)C(=O)O)c1 (stereo not shown) [Example 1-18]
> 6.00

Lookup CC1CCN(c2ccc(S(=O)(=O)N[C@@]3(C(=O)O)C[C@@H]3c3ccccc3)s2)CC1 [Example 2-256]
≤ 6.00

Next: O=C(O)C1(NS(=O)(=O)c2ccc(-c3ccc(Cl)cc3)s2)CC1c1cccc(Oc2cccnc2)c1 (stereo not shown) [Example 1-88]
> 7.00

* * *

# Assay System: MMP-1 (Homo sapiens, UniProt P03956)
# Sequence (P03956 100-469, species assumed): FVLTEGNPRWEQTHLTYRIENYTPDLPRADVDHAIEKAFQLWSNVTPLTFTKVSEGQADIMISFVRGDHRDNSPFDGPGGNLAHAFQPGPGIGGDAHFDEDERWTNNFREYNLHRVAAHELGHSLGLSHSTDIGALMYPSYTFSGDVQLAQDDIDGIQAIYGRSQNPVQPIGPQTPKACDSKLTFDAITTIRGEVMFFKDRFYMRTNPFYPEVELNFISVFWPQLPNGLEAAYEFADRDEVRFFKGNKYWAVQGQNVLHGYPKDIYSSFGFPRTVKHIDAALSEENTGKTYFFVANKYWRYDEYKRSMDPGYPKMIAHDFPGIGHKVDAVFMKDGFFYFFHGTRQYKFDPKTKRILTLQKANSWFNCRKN
# Experiment: MMP-1 inhibitory action (Type I collagen Activity Measurement kit, FITC-labeled collagen type I)
# Format: biochemical
# Details: Experimental Example 2; read-out: IC50 MMP1
pIC50: −log10 of the molar value.
Reported pIC50 values for a set of compounds

Requested read-out: pIC50. Entry: CC1[C@H](c2ccccc2)[C@]1(NS(=O)(=O)c1cn2cc(-c3ccccc3)nc2s1)C(=O)O (stereo partly shown)
> 6.00

Can you handle CC(=O)NCCCC1(c2ccccc2)CC1(NS(=O)(=O)c1ccc(-c2ccc(Cl)cc2)s1)C(=O)O (stereo not shown) next?
≤ 5.00

Follow-up item: CC(C)Nc1ccc2c(c1)CN(S(=O)(=O)N[C@@]1(C(=O)O)C(C)[C@@H]1c1ccccc1)C2 (stereo partly shown)
≤ 6.00

Lookup O=C(NCC1(c2ccccc2)CC1(NS(=O)(=O)c1ccc(-c2ccc(Cl)cc2)s1)C(=O)O)[C@@H]1CCCO1 (stereo partly shown)
≤ 5.00

Please answer likewise for `CN1CCN(C(=O)Cc2ccc([C@@H]3C[C@]3(NS(=O)(=O)c3ccc(-c4cc(C(F)(F)F)on4)s3)C(=O)O)cc2)CC1`
≤ 6.00

Proceed to CC1[C@H](c2ccccc2)[C@]1(NS(=O)(=O)c1ccc(-n2cc(C(F)(F)F)cn2)cc1)C(=O)O (stereo partly shown)
> 6.00

Consider now this further compound.
Which measured pIC50 value corresponds to CC1[C@H](c2ccccc2)[C@]1(NS(=O)(=O)c1ccc(-c2nc3ccccc3s2)s1)C(=O)O (stereo partly shown) ?
≤ 6.00
